Please provide measured composite z-score for the entries that follow.
- TARGET DESC: Follistatin (Homo sapiens)
- TEST METHOD NOTES: FST protein binding to printed compounds – biochemical, small-molecule microarray, 635/667 nm fluorescence, primary screen (AID 1132)
- CONDITION DESCRIPTION: 635 nm fluorescence, higher = more signal

Enquiry: Look up composite z-score for this compound: Cc1ccc(F)cc1S(=O)(=O)N[C@H]1CCN(Cc2ccc(OC(C)C)cc2)C1
Return: 0.855

Enquiry: Entry CO[C@H]1O[C@H](CO)[C@@H](OC(=O)Nc2ccccc2-c2ccccc2)[C@H](OC(=O)Nc2ccccc2)[C@H]1OC(=O)Nc1ccccc1 has what composite z-score?
Return: 1.3

Enquiry: Look up composite z-score for this compound: COC(=O)[C@@]1(Cc2ccc(F)cc2)[C@H]2c3cc(C(=O)N4CCCC4)n(Cc4cc(F)cc5c4OCOC5)c3C[C@H]2CN1C(=O)c1ccccc1
Return: 0.906

Enquiry: What does the data say about its composite z-score? Entry: CN1C(=O)C2C(C1=O)C1C=C(c3ccc(CO)cc3)C2C(C2CC2)N1C (stereo not drawn)
Return: -0.17

Enquiry: Could you tell me which composite z-score is on file for O=C1O[C@H](Cc2ccccc2)[C@@H]2[C@H]3C=CCCC=C3CN2[C@H]1Cc1ccc(O)cc1 ?
Return: 0.16

Enquiry: // composite z-score lookup, key: OCCCC1=CC(c2ccc(CN3CCCC3)cc2)N(Cc2cccc(OC(F)(F)F)c2)CC1 (stereo not drawn)
Return: 0.611

Enquiry: Could you share which composite z-score value was measured for CC(C)C(=C=CC[C@H](O)c1ccccc1OCCO)C[C@H](O)c1cc(Cl)cc(Cl)c1O ?
Return: 1.09

Enquiry: Entry O=C1O[C@H](c2ccccc2)[C@H](c2ccccc2)N2[C@H]1[C@@H](C(=O)O)[C@]1(C(=O)Nc3ccc(C#CCCO)cc31)[C@H]2c1ccc(OCCO)cc1 has what composite z-score?
Return: 1.22
